Values compiled from the supplement of paper PMC10567573.

Hi there, I'd appreciate the recorded protein stability index for every entry that follows.
B1: INTS4 (parent)
chain: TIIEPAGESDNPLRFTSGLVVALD

Variants of: B1
Assay: protein stability index of a GFP-peptide fusion (GPS, HEK-293T) (PSI 1-6); higher = more stable;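 further: lentivirally expressed fusions sorted by FACS into six bins by GFP to DsRed ratio, PSI derived from sequencing read proportions per bin multiplied by bin number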
Settings: c terminus: a fixed tail appended
Give bare numbers.

Worked examples, 3 variants total:
MUT: G7P
READOUT_VALUE: 3.04

MUT: V20S
READOUT_VALUE: 3.77

MUT: L19H
READOUT_VALUE: 3.59

Go through the items and report each one's protein stability index.
1. P5D
2. D10P
3. L19R
4. L13N
5. G7T
6. V20T
7. E4P
8. I2V

[out]
[3.36, 2.83, 4.01, 3.06, 3.08, 3.82, 3.15, 3.15]
